# test-name: Cytotoxicity in human SPC-A1 cells assessed as reduction in cell viability incubated for 24 hrs by MTT assay
# Type: functional, cell-based
# settings: SPCA1, 24 h
metric: IC50 (µM)
Response body: numeric value in µM, unit text excluded.

// below: answered molecules
C[C@@H]1CC[C@]2(C(=O)O)CC[C@]3(C)C(=CC(=O)[C@@H]4[C@@]5(C)CC[C@H](O)[C@](C)(CO)[C@@H]5CC[C@]43C)[C@@H]2[C@]1(C)O : 86
CC(=O)OC[C@]1(C)[C@@H]2CC[C@]3(C)[C@H](C(=O)C=C4[C@H]5[C@](C(=O)OCC(=O)N/N=C/c6ccc(C)cc6)(CC[C@@H](C)[C@@]5(C)O)CC[C@]43C)[C@@]2(C)CC[C@@H]1OC(C)=O : 7.4

Moving on to the next molecule.
In plain terms, `CC(=O)OC[C@]1(C)[C@@H]2CC[C@]3(C)[C@H](C(=O)C=C4[C@H]5[C@](C(=O)OCC(=O)N/N=C/c6ccccc6)(CC[C@@H](C)[C@@]5(C)O)CC[C@]43C)[C@@]2(C)CC[C@@H]1OC(C)=O` has a documented IC50 of 8.6
